Reference source: the supplement of paper PMC10724198

# Test system: Saccharomyces cerevisiae
# assay_procedure: protein stability index of tFT-peptide fusion (C-terminal peptide) (PSI (0-1 scale)); higher = more stable (slower turnover);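 note: PSI is a weighted mean of sequencing reads over stability bins, variants kept only with over 10 reads, mCherry proximal and sfGFP distal, peptide attached via GGGS linker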
# reported_conditions: genetic background: wild type; temperature: 30 C
Would you mind labelling by protein stability index? At or over 0.7 is MET, under is NOT MET.

Before answering, review these 2 worked examples.
>  <biosequence>
LLSSIPSLMFYY

>  <qualitative_label>
NOT MET

$$$$
>  <biosequence>
HPPLTPLRANLP

>  <qualitative_label>
MET

$$$$

Query: Reported protein stability index reaches at least 0.7 for DPVVSQLSSVPA ?
Response: NOT MET

---

# Test system: Saccharomyces cerevisiae
# assay_procedure: protein stability index of tFT-peptide fusion (C-terminal peptide) (PSI (0-1 scale)); higher = more stable (slower turnover)
# reported_conditions: genetic background: cdc53-1; temperature: 37 C
property_measured: protein stability index
I'd appreciate a reply containing only the number, no unit.

Query: Determine its reported protein stability index: WLYPVFKISYCV
Response: 0.533

Query: Determine its reported protein stability index: FLVIILFFLYMR
Response: 0.0943

Query: Determine its reported protein stability index: FYLSSCFLFLRF
Response: 0.136

Query: Determine its reported protein stability index: PVALYPVQAYLT
Response: 0.71

Query: Determine its reported protein stability index: FCCLIGYIWYGW
Response: 0.508
